TARGET_ENTITY: E. coli OGDH E1 (Escherichia coli)
Sequence (P0AFG3 whole entry): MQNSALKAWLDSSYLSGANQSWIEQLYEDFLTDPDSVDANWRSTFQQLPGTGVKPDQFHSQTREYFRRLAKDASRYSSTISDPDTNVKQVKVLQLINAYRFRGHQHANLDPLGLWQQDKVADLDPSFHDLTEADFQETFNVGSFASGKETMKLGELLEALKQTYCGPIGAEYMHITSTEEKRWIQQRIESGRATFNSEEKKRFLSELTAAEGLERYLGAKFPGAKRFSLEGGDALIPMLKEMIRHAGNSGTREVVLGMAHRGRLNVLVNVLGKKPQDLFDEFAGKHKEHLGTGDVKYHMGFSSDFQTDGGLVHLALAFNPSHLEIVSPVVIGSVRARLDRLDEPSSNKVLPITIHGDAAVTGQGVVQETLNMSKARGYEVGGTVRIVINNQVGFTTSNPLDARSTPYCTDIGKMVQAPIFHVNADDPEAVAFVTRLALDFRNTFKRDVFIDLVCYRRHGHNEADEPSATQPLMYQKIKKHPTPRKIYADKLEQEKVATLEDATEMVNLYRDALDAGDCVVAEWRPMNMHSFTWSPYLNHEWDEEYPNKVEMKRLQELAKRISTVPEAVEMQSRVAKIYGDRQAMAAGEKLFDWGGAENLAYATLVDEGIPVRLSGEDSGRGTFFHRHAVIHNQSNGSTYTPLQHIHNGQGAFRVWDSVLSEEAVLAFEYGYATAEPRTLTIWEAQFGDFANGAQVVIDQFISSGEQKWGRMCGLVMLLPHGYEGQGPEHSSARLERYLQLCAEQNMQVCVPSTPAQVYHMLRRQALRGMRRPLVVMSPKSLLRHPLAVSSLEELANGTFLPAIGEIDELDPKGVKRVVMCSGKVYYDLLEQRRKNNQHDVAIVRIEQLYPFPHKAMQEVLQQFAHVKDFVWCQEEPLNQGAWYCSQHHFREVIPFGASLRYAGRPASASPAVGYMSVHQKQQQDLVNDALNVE
TEST_DESCRIPTION: E. coli OGDH E1 inhibitory activity assay (DCPIP reduction)
Type: biochemical
DETAILS: calculated from KM(TPP) 3 µM using [TPP]/IC50 = KM(TPP)/KI
pKi: −log10 of the molar value.
TEST_READOUT: pKi

MOLECULE | TEST_READOUT | EXPERIMENTAL_VALUE
Cc1ncc(Cn2cc(CCCCC(=O)[O-])nn2)c(N)n1.[K+] [16b] | pKi | 4.85
Cc1ncc(Cn2cc(CCC(C(=O)[O-])C(=O)[O-])nn2)c(N)n1.[K+].[K+] [14a] | pKi | 5.28
Cc1ncc(Cn2cc(CCCC(C(=O)[O-])C(=O)[O-])nn2)c(N)n1.[K+].[K+] [14b] | pKi | 5.47
Cc1ncc(Cn2cc(CCCC(=O)[O-])nn2)c(N)n1.[K+] [16a] | pKi | 4.80
